All figures here come from patent US20080160035A1.

Target: T1, dimeric hIL-4R-hFc (human, UniProt P24394 26-232)
T1 construct: also called hIL-4R-Fc; not shown: human Fc (hFc)
T1 sequence: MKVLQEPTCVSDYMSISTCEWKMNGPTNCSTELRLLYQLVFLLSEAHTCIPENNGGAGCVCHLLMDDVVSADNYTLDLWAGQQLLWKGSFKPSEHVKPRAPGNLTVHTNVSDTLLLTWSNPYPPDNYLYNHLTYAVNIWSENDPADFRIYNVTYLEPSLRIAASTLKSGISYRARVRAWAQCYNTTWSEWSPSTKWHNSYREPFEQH
Assay: SPR (BIAcore 2000); antibody captured, dimeric hIL-4R-hFc injected
List of T1/2 dimeric values.
MEASURED PROPERTY: T1/2 dimeric (h)

>>> observed_value("VAK11D4-1 (antibody, V domains shown, Apparently tested with mouse constant region (anti-mouse IgG capture/detection)) VH: QVRLVESGGGVVQPGRSLRLSCVASGFTFRSYGMHWVRQAPGRGLEWVAVISYDGSQTFYVDSVKVRFTISRDNSNNTLYLEMNSLRVDDTAVYFCVKEGRSGSWFDPWGQGTLVAVSS VL: DIHMTQSPSSLSASVGDRVTITCRASQAINNYLAWFQQKPGRTPKSLIFATSSLQSGVPSRFSGSGSGTDFTLTISSLQPEDFATYYCQQYNSHPWTFGQGTKVEIK")
21
>>> observed_value("VAK7G8-5 (antibody, V domains shown, Apparently tested with mouse constant region (anti-mouse IgG capture/detection)) VH: QVRLVESGGGVVQPGGSLRLSCTASGFIFRSYGMHWVRQAPGRGLEWVAVISYDGSKTFYVDSVKVRFTISRDNSKNTLYLEMNSLRVDDTAVYFCVKEGRSGSWFDPWGQGTLVAVSS VL: DIHMTQSPSSLSASVGDRVTITCRASQAINNFLAWFQQKPGKTPKSLIFATSSLQSGVPSRFSGSGSGTDFTLTISSLQPEDFATYYCQQYNSHPWTFGQGTKVEIR")
25
>>> observed_value("VAB 6C10-14 (antibody, V domains shown, Apparently tested with mouse constant region (anti-mouse IgG capture/detection)) VH: QVQLVQSGAEVKKPGASVKVSCKASGYTFTNYGLTWVRQAPGRGLEWMGWISVYNGNTNYAQTLKGRVTMTTDTSTSTAYMELKSLRSDDTAVYYCARGSGYDFDYWGQGTLVTVSS VL: AIQMTQSPSSLSASVGDRVAITCRASQDIRNDLGWYQQKPGKAPKLLIHTASSLQSGVPSRFSGSGSGTDFTLTISNLQPEDFATYYCLQDNSYPYTFGQGTKLEIN")
6.2
